Hello, the source for this data is patent US10227388B2, in case you need it.

assayed.system: HLA-A*02:01 (Homo sapiens, UniProt P04439, D140Y/D185E/D98H/E176V/E277Q/G131W/G231S/I119V/I121R/I166T/I218V/L300P/L318F/N151K/N90K/P208A/P217A/Q86G/Q94H/R138H/R169H/T345S)
assay.explanation: MHC binding assay (UV-ligand exchange, ELISA, peptide exchange yield)
measurement.parameters: binding of HLA-class I restricted peptides to HLA-A*02:01
result.type: Peptide exchange (MHC class I binding score, peptide exchange yield)

[[record]]
substance = "237 (ALLEASGTLLL; listed as Homo sapiens) [compound 237]"
reading = "″++++″ (≥75% = ++++)"

[[record]]
substance = "170 (RLQETLSAA; listed as Homo sapiens) [compound 170]"
reading = "″+++″ (≥50% = +++)"

[[record]]
substance = "352 (SLLELLHIYV; listed as Homo sapiens) [compound 352]"
reading = "″+++″ (≥50% = +++)"

[[record]]
substance = "43 (VLSSLEINI; listed as Homo sapiens) [compound 43]"
reading = "″++″ (≥20% = ++)"

[[record]]
substance = "70 (GLLDYPVGV; listed as Homo sapiens) [compound 70]"
reading = "″+++″ (≥50% = +++)"

[[record]]
substance = "412 (YLDDLNEGVYI; listed as Homo sapiens) [compound 412]"
reading = "″++″ (≥20% = ++)"

[[record]]
substance = "314 (ALIAEGIALV; listed as Homo sapiens) [compound 314]"
reading = "″+++″ (≥50% = +++)"

[[record]]
substance = "142 (FLFATPVFI; listed as Homo sapiens) [compound 142]"
reading = "″+++″ (≥50% = +++)"

[[record]]
substance = "310 (FLVDTPLARA; listed as Homo sapiens) [compound 310]"
reading = "″++++″ (≥75% = ++++)"

[[record]]
substance = "135 (ALSEVDFQL; listed as Homo sapiens) [compound 135]"
reading = "″+++″ (≥50% = +++)"

[[record]]
substance = "304 (MTLGQIYYL; listed as Homo sapiens) [compound 304]"
reading = "″+++″ (≥50% = +++)"

[[record]]
substance = "346 (LLDSKVPSV; listed as Homo sapiens) [compound 346]"
reading = "″+++″ (≥50% = +++)"

[[record]]
substance = "47 (ILLSVPLLVV; listed as Homo sapiens) [compound 47]"
reading = "″++″ (≥20% = ++)"

[[record]]
substance = "328 (ALNDQVFEI; listed as Homo sapiens) [compound 328]"
reading = "″+++″ (≥50% = +++)"

[[record]]
substance = "147 (SLLEAVSFL; listed as Homo sapiens) [compound 147]"
reading = "″+++″ (≥50% = +++)"

[[record]]
substance = "580 (LLMENAERV; listed as Homo sapiens) [compound 580]"
reading = "″++″ (≥20% = ++)"

[[record]]
substance = "288 (NLINEINGV; listed as Homo sapiens) [compound 288]"
reading = "″+++″ (≥50% = +++)"

[[record]]
substance = "34 (ILVEADSLWVV; listed as Homo sapiens) [compound 34]"
reading = "″+++″ (≥50% = +++)"

[[record]]
substance = "475 (LLLNEEALAQI; listed as Homo sapiens) [compound 475]"
reading = "″+++″ (≥50% = +++)"

